Biological target: T1, Cbk1^251–756–Mob2 complex (S. cerevisiae, UniProt P53894 251-756; P43563 1-287)
T1 chain 1: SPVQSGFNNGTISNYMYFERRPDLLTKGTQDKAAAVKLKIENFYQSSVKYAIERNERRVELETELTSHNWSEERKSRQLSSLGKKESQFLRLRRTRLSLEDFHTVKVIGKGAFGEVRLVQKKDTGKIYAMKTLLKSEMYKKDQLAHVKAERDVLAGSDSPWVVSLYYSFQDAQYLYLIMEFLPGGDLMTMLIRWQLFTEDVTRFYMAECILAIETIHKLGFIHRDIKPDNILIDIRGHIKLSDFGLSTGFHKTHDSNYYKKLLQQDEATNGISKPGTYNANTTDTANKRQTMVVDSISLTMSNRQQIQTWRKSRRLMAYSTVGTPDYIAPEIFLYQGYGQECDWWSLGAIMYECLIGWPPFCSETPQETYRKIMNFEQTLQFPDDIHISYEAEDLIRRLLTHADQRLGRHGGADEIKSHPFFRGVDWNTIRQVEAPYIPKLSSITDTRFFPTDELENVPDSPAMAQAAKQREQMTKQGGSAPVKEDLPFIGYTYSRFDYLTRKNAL
T1 chain 2: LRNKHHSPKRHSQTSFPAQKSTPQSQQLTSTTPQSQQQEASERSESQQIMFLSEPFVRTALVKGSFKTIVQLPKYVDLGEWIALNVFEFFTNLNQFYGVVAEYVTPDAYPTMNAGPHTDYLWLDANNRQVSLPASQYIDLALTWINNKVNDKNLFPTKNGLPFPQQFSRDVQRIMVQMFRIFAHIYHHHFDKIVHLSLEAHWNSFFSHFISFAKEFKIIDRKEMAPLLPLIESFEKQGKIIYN
Assay: FP
Non-standard residues stand in square brackets, D forms with d. No end group written: not given here. carboxyfluorescein = carboxyfluorescein label; pT = C[C@@H](OP(=O)(O)O)[C@H](N)C(=O)O

{"columns": ["Binder", "Kd"],
 "data": [
  ["carboxyfluorescein-TTEQSDFKFP [pepSSD1, carboxyfluorescein-labelled]", "6 µM"],
  ["IGY[pT]YSRFDY-carboxyfluorescein [pepHM-P, carboxyfluorescein-labelled]", "20 µM"],
  ["carboxyfluorescein-GSGSIIVTTNSANGGYQFP [pepAce2, carboxyfluorescein-labelled]", "5 µM"]
]}
